experiment: yeast display, Sf9 membrane polyspecificity reagent, FACS + sequencing; frameworks hold sequencing errors
recordedMetric: polyreactivity (PSR sort gate)

Worked cases, answers included:
- QVQLLESGRGLVQEGGSLRLSCAASGFTFTAYAMGWYRQAPGKERELVAVISVRGGRTRYADSVKGRFTLSRDNAKNTVYLQMNSLKPEDTAVYYCDARYRPYSGSPQYDYWGQGTQVTVSS: high polyreactivity
- QVQLVESAGGLVQAAGSLRLSCDASGRIFWYNAMGWYRQEPGKERELVAAISSGGSTSYADSVKGRFTISRDNAKNTVYLQMNSLKPEDTAVYYCDKDDERKQGQYPPYDSWGQGTQVTVSS: low polyreactivity
- QVQLVESGGGLVQAGGSLRLSCAASGNTFGYNAMGWYRQAPGKERELVAAISWRGGRTYYADSVKGRFTISRDHAKNTVYLQMNILKTEDTAVYYCAARRHSTRLRLTYDYWGQGTQVTVSW: high polyreactivity
- QVQLVESGAGVGQAGGSLRLSCAASGSIFTPYAMGWYRPAPGKERELVAGITSGGNTNYADSVKGRFTISRDNAKNTVYLQMNSLKPEDTAVYYCAARYIYYYAYGYNYWGQGTKVTVSS: high polyreactivity

Exam item: Please report the recorded polyreactivity (PSR sort gate) for QVQLVESGGGLVQSGGSLRLSCAASGSTFNGYAMGWYRQAPGKERELVAGITGSGGSTYYADSVKGRFTISRDNAKNTVYLQMNSLKPEDTAVYYCKAVHWGGSYWGLDYWGQGTQVTVSS .
Marked response: low polyreactivity

Exam item: Same again, this time with QVQLVESGGGLVQAGGSLRLSCAASGRTYGYAMGWYRQAPGKERELVARITWRGGSTSYADSVKGRFTISRENAKNTVYLQMNSLKPEDTAVYYCAAGFNSSDWHYYYRGQGTQVTVSS
Marked response: high polyreactivity

Exam item: Same again, this time with QVQLVESGGGLVQAGGSLRLSCAASGIIIKRNAMGWYRQAPGKEMELVAAISRSGGSTYYSDSVKGRFTISRDIAMNTVYLQMNSLKAEDTAVYYCAADWSEYPYDYWGQGTQVTVSS
Marked response: low polyreactivity

Exam item: Same again, this time with QVQLVESGGGLVQAGGSLRLSCAASGRTFYWNAMGWYRQAPGKERELVASINGGGSTYYADSVKGRFTISRDNAKNTVYLQMNSLKPEDTAVYYCNVRYYFPRYQQRYQLNEYYYWGQGTQVTVSS
Marked response: low polyreactivity

Exam item: Same again, this time with QVQLVESGGGLVPAGGSLRLSCAASGNIYRYYVMGWYRQAPGKEREFVAAITSSGGSTYYADSVKGRFTISRDNAKNTVYLQMNSLKPEDTAVYYCAKDYWDPGWAEYDDWGQGTQVTVSS
Marked response: low polyreactivity

Exam item: Same again, this time with QVQLVESGGGLVQAGGSLRLSCAASGRTFYNAMGWYRQAPGKERELVAAITTGGGTKYADSVKGRFTISRDNAKNTVYLQMNSLKPEDTEVYYCATDAPDRTHSDSGFDAGYDYWGQGTQVTLSS
Marked response: low polyreactivity

Exam item: Same again, this time with HVQLVESGGGLVQAGGSLRLSCAASGSIFVSYGMGWYRQAPGKEWELVASISNSAGSTYYADSVKGRFTISRDNAQNTVYLQMNSLKPDDTAVYSCAADYWVWAYGGYDAYNYWGQGTQVTVSS
Marked response: high polyreactivity

---

experiment: yeast display, Sf9 membrane polyspecificity reagent, FACS + sequencing; frameworks hold sequencing errors
recordedMetric: polyreactivity (PSR sort gate)

- QVQLVESGGGLVQAGGSLRLSCAASGGILWFYAMGWYIQAPGKEREFVAAIDLGGGSTYYADSVKGRFTISRDNAKTTVYLQMNSLKPEDTAVYYCNAETSGHYSTIMDYWGQGTQVTVSS: low polyreactivity
- QVQLVESGGGLVQAGGSLRLSCAASGRIFLGNVMGWYRQAPGKERELVAAISSGGSTNYADSVKGRFTISRDNAKNTVYLQMNSLIPEDTAVYYCAAYFVRDWKLYYYWGQGTQVTVSS: low polyreactivity
- QVKIVESGGGLVQAGGSLRLSCAASGGIFNWYAMGWYRPAPGKERELVAAITQSGGSTYYADSVKGRFTISRDNAKNTEYLQMNSLKPEDTAVYYCNKDQEKFWTAFNTIGRAREYDYWGQGTQVTVSS: low polyreactivity

---

assay: yeast display, Sf9 membrane polyspecificity reagent, FACS + sequencing; frameworks hold sequencing errors
recordedMetric: polyreactivity (PSR sort gate)

- QVQLVESGGGLVQAGGSLRLSCAASGFIFTYYAMGWYRQAPGKERELVAVISWSGGTTYYADSVKGRFTISRDNAKNTVYLQMNSLKPEDTAVYYCNADRSLLYSRKIEYDYWGQGTQVTVSS: low polyreactivity
- QVQLVESGGGLVQAGGSLRLSCAASGSIFYSYAMGWYIQAHGKERELVARINYRGGSTYYADSVKGRFTISRDNAKNTVYLQMNSLKPEDTAVFYCAKRSYWSSNPRDYWGQGTKVTVSS: high polyreactivity
- QVQLVESGGGLVQAGGSLRLSCAASGRIFFYNVMGWYRQAPGKERELVAAITTIGGSTYYADSVKGRFTISRDNAKNTVYLQMNSLKPEDTAVYYCAAGWVTNSDGMDYWGQGTQVTVSS: low polyreactivity
- PVQLVESGGVLVQAGGSLRVSCAASGSILLIYSMGWSIQAPGKERELVAGINWSGSRAYYADSVKGRFTISRDNAQNTVYLQMNSLKPEDTAVYYCAARGRRPLYSAYDSWGQGTQVTVSS: low polyreactivity

Please find the next sequence below.
Exam item: Please report the recorded polyreactivity (PSR sort gate) for QVQLVESGGGLVQAGGSLRLSCDASGSTFFTYAMGWYRQSPGKERELVAAITRGGSTYYADSVKGRFTISRDNAKHTVYLQMNSLKPEDTAVYYCNVDPFTRQNHGNYWGQGTQVTVSS .
Marked response: high polyreactivity

---

test: yeast display, Sf9 membrane polyspecificity reagent, FACS + sequencing; frameworks hold sequencing errors
recordedMetric: polyreactivity (PSR sort gate)

Worked cases, answers included:
- QVQLVESGGGLVQAGRSLRLTCAASGRTLGYNAMGWYRQPPGKERELVAAITYSGSRTYYADSVKGRFTISRDNAKNTVYLQMNSLKPEDTAVYYCAAGGYIAYYYYRFDYWGQGTQVTVSS: high polyreactivity
- QVQLVESGGGLVQAGGSLRLSCAASGSIFVWNAMGWYIQAPRKERELVAAISYTDGSTYYADSVKGRFTISRDNAKNTVYLQMNSMNPEDTAVYYCAASTLKDIYLWFRVDYWGQCTQVTVSS: low polyreactivity
- QVQLVESGGGLVQAGGSLRLSCAASGRIFNVYAMGWYRQAPGKERELVAAITYSGGSTYYADSVKVRITISRDNAKNSVYLQMIFLKPEDTAVYYCNARSSKRSSRGYDYWGQGTQVTVSS: high polyreactivity
- QVQLVESGGGLVQAGGSLRLSCAASGSTFGSNAMGWYRQAPGKERELVAAIRGIVGSTYYADSVKGRFTISRDNAKNTVYLQMNSLKPEDTAVYYCNKAEVSTYYHTRSTYGGYDYWGQGTQVTVSS: low polyreactivity
- QVQLVESGGGLVQAGGSLRLSCAASGFILAGYAMGWYRQAPGKERELVAAINSRGTRTYYADSVKGRFTISRDNAKNTVYLQMNSLKPEDTAVYYCAVHVWGTYGSWEYYYWGQGTQVTVSS: high polyreactivity
- QVQLVESGGGLVQAGGSLRLSCAASGSTFQWNALGWYRQAPGKERELVASITDSGGRTNYADSVKGRFTISRDNAKNTVYLQMNSLKPEDTAVYYCNAAGYRRSTWWYDYWGQGSQVTVSS: high polyreactivity

Please find the next sequence below.
Exam item: Please report the recorded polyreactivity (PSR sort gate) for QVQLVESGGGLVQAGGSLRLSCAASGFISYYYAMGWYRQAPGKEREFVAAITSSGGSTRYADSVKGRFSISRDNATNTVYLQMNSLKPEDTAVYYCAAGNPYFWPYDYWGQGTQVTVSS .
Marked response: low polyreactivity

---

test: yeast display, Sf9 membrane polyspecificity reagent, FACS + sequencing; frameworks hold sequencing errors
recordedMetric: polyreactivity (PSR sort gate)

Worked cases, answers included:
• QVQLVESGGGLVQAGGSLRLSCAASGIIFDLYAMGWYRQAPGKERELVAAITYGGGSTYYADSVKGRFTISRDNAKHTVYLQMNSLQPEDTAVYYCAAVPRSGMYYWGQGTQVTVSS = high polyreactivity
• QVQLVESGGGLVQAGGSLRLSCAASGLIFAYNAMGWYRQAPGKERELVAAITGGGDGTYYADSVKGRFTISRDNAKNTVYLQMNSLKPEDTAVYYCAADFGNSPYIKVYYYWGQGTQVTVSS = low polyreactivity
• QVQLVESGGGLVQAGGSLRLTCPASGSTFHGYDMGCYRQAPGKERELVAAITSSGDDTYYADSVKGRFTISRDNAKNTVYLQMNSLKPEDTAVYYCAAEYTEGYTHDYWGQGSQVTVSS = low polyreactivity
• QVQLVESGGGLVQAGGSLRLSCAASGSTFDYYAMGWYRQAPGKEREFVASINWNGARTYYADSVKGRFTISRDNAKNTVYLQMNSLKPEDTAVYYCAAYTKRYLYNYWGQGTQVTVSS = high polyreactivity
• QVQLVESGGGFVQAGGSLRLSCAASGRTFGHNDMGWYIQAPGKERELVATNSADGSTNYADSVKGRITISRDNEKKTVKLQMNSLKPEDTAVSYCAKDYQYVAYDYWGQGTQVTVSS = low polyreactivity

Exam item: Please report the recorded polyreactivity (PSR sort gate) for QVQLVESGGGLVQAGGSLRLSCAASGRIFKWNAMGWYRQAPGKERELVAAISLSGGSTYYADSVKGRFTISRDKAKNTVYLQMNSLKPEDTAVYYCNAYAYHRYGYWGQGTQVTVSS .
Marked response: high polyreactivity

Exam item: Same again, this time with QVQLEESGGGLVQAGGSLRLSCAASGSTFKTYASGWYRQAPGKERELVAAISWSGGSTYYAESVKGRFTISRDNAKNTVYLQMNSLKPEDTAVYYCNAGWGYPSPWFIGEYWGQGTQVTVSS
Marked response: low polyreactivity

Exam item: Same again, this time with QVQLVESGGGLVQAGGSLRLSCAASGYTFFYAMGWYRQAPGKERQLVAGISRAGRTKYADSVKGRFTISRDNAKNTVYLQMNSLKPEDTAVYYCAAYARVSSSRFDYWGQGTQVTVSS
Marked response: high polyreactivity
